# Test system: SW-620
# protocolSummary: NCI tumour cell line growth inhibition, 48 h
Activity calls are given as the source filed them. Cut-off read from the data, not from the text of the source: active = GI50 up to about 1.1 µM and inactive = higher.
Labels: yes (1) for active, no (0) for inactive

[[record]]
molecule = "C#C[C@]1(O)[C@@H](CO)O[C@@H](n2ccc(N)nc2=O)[C@@H]1O"
classname = "yes (1)"

[[record]]
molecule = "COC(=O)[C@@]12CCCC(=O)[C@@H]1[C@H]1CCC[C@H]12"
classname = "no (0)"

[[record]]
molecule = "CC(=O)C1COC(O)C1C (configuration not stated)"
classname = "no (0)"

[[record]]
molecule = "CO[C@H]1[C@@H](O)[C@@H](O)O[C@@H](O[C@H]2CC[C@@]3(C)[C@H](CC[C@@H]4[C@@H]3[C@H](O)C[C@]3(C)[C@@H](C5=CC(=O)OC5)CC[C@]43O)C2)[C@@H]1O"
classname = "yes (1)"

[[record]]
molecule = "C/C(=N\\N(C)C)C(CN(C)C)C(c1ccccc1)c1c(O)c2ccccc2oc1=O (configuration not stated)"
classname = "no (0)"

[[record]]
molecule = "N#Cc1nc(CCCCCN2C(=O)c3ccccc3C2=O)oc1N"
classname = "no (0)"

[[record]]
molecule = "CCCCOCOc1ccccc1P1(=O)COc2ccccc2OC1"
classname = "no (0)"

[[record]]
molecule = "COc1cccc2c1[C@H]1CO[C@H]3C4C[C@H](C(=O)O)C([C@@H](C2)N13)N4C (some centres not stated)"
classname = "no (0)"

[[record]]
molecule = "C=CCC1CC(n2cc(C)c(=O)[nH]c2=O)OC1CO[Si](C)(C)C(C)(C)C (configuration not stated)"
classname = "no (0)"

[[record]]
molecule = "C=CCN1C[C@H](C)N([C@H](c2ccc(C(=O)N(CC)CCO)cc2)c2cccc(OC)c2)C[C@H]1C"
classname = "no (0)"

[[record]]
molecule = "Cn1c(N)nc(=O)c2c1N(C1OC(CO)C(O)C1O)CN2Cc1ccccc1 (configuration not stated)"
classname = "no (0)"

[[record]]
molecule = "CCOC(=O)C1=NN(c2ccc(C)cc2)C2(c3ccccc3)C=C(c3ccccc3)N(C)CCN12 (configuration not stated)"
classname = "no (0)"


* * *

# System: NCI-H460
# protocolSummary: NCI tumour cell line growth inhibition, 48 h
The source made the active and inactive calls. Cut-off read from the data, not from the text of the source: active = GI50 up to about 1.1 µM and inactive = higher.
The molecules listed here are annotated with their GI50.
observedProperty: GI50

[[record]]
molecule = "CCCOC(=O)C1CCC(=O)N1C(=O)C(Cl)Cl (centres undefined)"
endpointresult = "> 100 µM (inactive)"

[[record]]
molecule = "O=c1cc(N2CCN(c3cc(=O)n4ccccc4n3)CC2)oc2ccccc12"
endpointresult = "26.6 µM (inactive)"

[[record]]
molecule = "Cc1ccccc1SC(/C=C/NNC1=NN=C(c2ccccc2)C(c2ccccc2)N1)c1ccccc1 (centres undefined)"
endpointresult = "34.9 µM (inactive)"

[[record]]
molecule = "O=C(O)CCC(N/C=C1/N=C(c2ccccc2)OC1=O)C(=O)O (centres undefined)"
endpointresult = "> 100 µM (inactive)"

[[record]]
molecule = "CCCCCCCCCCCCCCCCNc1nc(=O)n(C2CC(O)C(CO)O2)cc1F (centres undefined)"
endpointresult = "10.7 µM (inactive)"

[[record]]
molecule = "C1CNCCNCCNCCN1"
endpointresult = "35.8 µM (inactive)"

[[record]]
molecule = "CC1CC(C)CC(NC2=NCCO2)C1 (centres undefined)"
endpointresult = "> 100 µM (inactive)"

[[record]]
molecule = "COc1ccc2ccc([Se]c3ccc4ccc(OC)cc4c3)cc2c1"
endpointresult = "89.1 µM (inactive)"

[[record]]
molecule = "C#CC(=O)OCC#CCOC(=O)C#C"
endpointresult = "> 100 µM (inactive)"

